B1: VH:VL chains; a variant is named by its letters at X, in order (parent)
chain 1: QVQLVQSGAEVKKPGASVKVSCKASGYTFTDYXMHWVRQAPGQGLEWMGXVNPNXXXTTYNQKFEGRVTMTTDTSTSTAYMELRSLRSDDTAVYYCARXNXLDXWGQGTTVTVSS
chain 2: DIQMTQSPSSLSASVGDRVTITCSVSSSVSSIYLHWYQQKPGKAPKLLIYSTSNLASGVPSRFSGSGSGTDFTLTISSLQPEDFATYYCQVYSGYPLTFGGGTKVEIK

Variants of: B1
Assay: yeast display scFab, FACS + sequencing
metric-name: non-specific binding call

| mutation-name | metric-name | result |
| --- | --- | --- |
| VRRGSFGA | non-specific binding call | binds |
| YRGRDDWF | non-specific binding call | no binding |
| DGGRGDAF | non-specific binding call | no binding |
| YAGAAAVD | non-specific binding call | binds |
| YRAGDSVD | non-specific binding call | no binding |
| VTERSALD | non-specific binding call | binds |
| VKGRGAGS | non-specific binding call | binds |
| YRRESSGY | non-specific binding call | binds |
| SKERGDGA | non-specific binding call | no binding |
| FRRGGSLD | non-specific binding call | binds |

Lab note: next variant to report on.
Given item FRGRGSAY , the value recorded as its non-specific binding call is binds
